Give TGI for every item shown.
system: HL-60(TB) leukemia; assay: NCI tumour cell line growth inhibition, 48 h
Just the number in µM, nothing appended.

Record request: TGI value, item O=C(OCCOCCOC(=O)c1c[nH]cc1-c1ccccc1)c1c[nH]cc1-c1ccccc1
55.1

Record request: TGI value, item CCOC(=O)c1ccc(N=C/C=C(\Nc2ccc(C(=O)OCC)cc2)c2ccc3ccccc3c2)cc1
70.8

Record request: TGI value, item COc1ccc(Cc2ccccc2C(=O)O)c2ccccc12
46

Record request: TGI value, item O=C(O)/C(Cl)=C(/Cl)C(=O)Nc1cccc(Cl)c1
22.7

---

tested on: COLO 205 colon; experiment: NCI tumour cell line growth inhibition, 48 h
Give GI50 for every item shown.

Record request: GI50 value, item O=C1c2cc3c(cc2-c2c1c1ccc([N+](=O)[O-])cc1c(=O)n2CCCCl)OCO3
0.567 µM

Record request: GI50 value, item O=C1NC(=NCCc2ccccc2Cl)S/C1=C\c1ccc2ncccc2c1
3.98 µM

Record request: GI50 value, item O=C(NC(=S)NS(=O)(=O)c1ccc(N2N=C3c4ccccc4CC3C2c2cccs2)cc1)c1ccccc1 (stereo not drawn)
38.4 µM

Record request: GI50 value, item Cn1c2ccccc2c2c3c(c4c5ccccc5n(CCCCCC#N)c4c21)C(=O)N(O)C3=O
2.5 µM

Record request: GI50 value, item CCCNc1nc(-c2ccc(OC)cc2)nc2ccccc12
19.9 µM

Record request: GI50 value, item CC1=C(C(=O)Nc2ccc(F)c(Cl)c2)C(c2cccc(Cl)c2)NC(=O)N1 (stereo not drawn)
13.7 µM

Record request: GI50 value, item Cc1ccc(Cl)cc1Nc1nc(C(F)(F)F)ccc1C(=O)Oc1ccc(Cl)cc1
9.81 µM

Record request: GI50 value, item COc1cc(/C=C/C(=O)c2ccc(Nc3nc(Nc4ccc(F)cc4)nc(Nc4ccc(F)cc4)n3)cc2)cc(OC)c1OC
3.5 µM

Record request: GI50 value, item Oc1ccc2ccccc2c1/C=N\Nc1ccccn1
27.6 µM

Record request: GI50 value, item C=C1C(=O)O[C@H]2[C@H]1CC/C(COC(=O)CCC(=O)OC/C1=C/CC[C@@]3(C)O[C@H]3[C@H]3OC(=O)C(=C)[C@@H]3CC1)=C\CC[C@@]1(C)O[C@@H]21
0.455 µM

Record request: GI50 value, item CO/N=C1/c2cc(OC)ccc2-c2c(NOC)nc3ccccc3c21
41.3 µM

Record request: GI50 value, item COC(=O)c1c(-c2ccccc2)csc1NC(=O)c1c(-c2ccccc2)noc1C
1.21 µM

Record request: GI50 value, item CC(O)CN(CCN(CC(C)O)CC(C)O)CC(C)O.O=[N+]([O-])O.[Cu+2] (stereo not drawn)
> 100 µM
